kon values, listed per item
target: B7-H4 purified monomeric recombinant human protein (Homo sapiens, UniProt Q7Z7D3); experiment: SPR
Sequence (Q7Z7D3 25-259): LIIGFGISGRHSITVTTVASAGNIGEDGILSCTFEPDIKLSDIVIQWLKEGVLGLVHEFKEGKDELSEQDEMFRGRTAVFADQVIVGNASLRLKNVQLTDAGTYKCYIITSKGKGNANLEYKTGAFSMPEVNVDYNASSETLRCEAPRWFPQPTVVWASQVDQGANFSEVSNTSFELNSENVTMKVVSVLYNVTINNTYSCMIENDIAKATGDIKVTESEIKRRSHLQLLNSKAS
endpoint_label: kon (M⁻¹ s⁻¹)

binder	endpoint_label	output_unit	reported_result
A02 (scFv, V domains shown) VH: EVQLVESGGGVVQPGRSLRLSCAASGFTFTSRAMNWVRQAPGKGLEWVSAISYEGRTQYYADSVKGRFTISRDNSKNTLYLQMNSLRAEDTAVYYCARKRWYGMDVWGQGTTVTVSS VL: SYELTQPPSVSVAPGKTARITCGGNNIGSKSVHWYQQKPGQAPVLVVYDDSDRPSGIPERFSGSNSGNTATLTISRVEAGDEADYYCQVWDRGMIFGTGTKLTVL	kon	M⁻¹ s⁻¹	280000
A05 (scFv, V domains shown) VH: EVQLVESGGGVVQPGRSLRLSCAASGFTYSSRAMNWVRQAPGKGLEWVSAISGSGSNAYYADSVKGRFTISRDNSKNTLYLQMNSLRAEDTAVYYCARKRWYGMDVWGQGTTVTVSS VL: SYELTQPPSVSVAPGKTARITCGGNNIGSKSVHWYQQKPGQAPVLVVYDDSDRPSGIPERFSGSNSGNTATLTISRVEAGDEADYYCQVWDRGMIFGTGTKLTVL	kon	M⁻¹ s⁻¹	190000
A07 (scFv, V domains shown) VH: EVQLVESGGGVVQPGRSLRLSCAASGFTFSSRSMNWVRQAPGKGLEWVSAISGSGSTVYYADSVKGRFTISRDNSKNTLYLQMNSLRAEDTAVYYCARKRWYGMDVWGQGTTVTVSS VL: SYELTQPPSVSVAPGKTARITCGGNNIGSKSVHWYQQKPGQAPVLVVYDDSDRPSGIPERFSGSNSGNTATLTISRVEAGDEADYYCQVWDSRTYVFGTGTKLTVL	kon	M⁻¹ s⁻¹	170000
B12 (scFv, V domains shown) VH: EVQLVESGGGVVQPGRSLRLSCAASGFTFSDRAMNWVRQAPGKGLEWVSAISGTGASTYYADSVKGRFTISRDNSKNTLYLQMNSLRAEDTAVYYCARKRWYGMDVWGQGTTVTVSS VL: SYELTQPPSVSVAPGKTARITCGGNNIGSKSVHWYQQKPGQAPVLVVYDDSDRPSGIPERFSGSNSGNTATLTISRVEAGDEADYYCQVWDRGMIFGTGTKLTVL	kon	M⁻¹ s⁻¹	340000
B08 (scFv, V domains shown) VH: EVQLVESGGGVVQPGRSLRLSCAASGFTFSDRAMNWVRQAPGKGLEWVSAISASGASRYYADSVKGRFTISRDNSKNTLYLQMNSLRAEDTAVYYCARKRWYGMDVWGQGTTVTVSS VL: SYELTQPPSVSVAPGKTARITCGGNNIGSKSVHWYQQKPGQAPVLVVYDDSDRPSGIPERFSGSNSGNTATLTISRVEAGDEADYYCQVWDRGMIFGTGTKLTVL	kon	M⁻¹ s⁻¹	150000

The measured values listed here are drawn from paper PMC9467613.
